# MEASUREMENT NOTES: nonspecific Ca2+ signal without MrgX1 expression – cell-based, Fluo-4 calcium flux, duplicate, agonist mode, counter-screen for MrgX1 agonist project, primary screen (AID 624115)
# RUN PARAMETERS: parental HEK293, Fluo-4 calcium fluorescence (FDSS), at 10 µM; hits give high values
Out of some 4,000 compounds screened, about 350 (8.8%) were called active. Not all results are given here.
VALUE TYPE: fluorescence ratio F(max-min)/F0

In the examples that follow, each entry is paired with its recorded fluorescence ratio F(max-min)/F0.
1. COc1ccc(Nc2nc(-c3cccnc3)nc3ccccc23)cn1 inactive
2. Cc1ccc(-n2[nH]c(C)c(/C=N/N3C(=O)c4cccc5cccc(c45)C3=O)c2=O)cc1 110 (active)
3. CCOC(=O)CNC(=O)CSc1nc2cccnc2n1CC inactive
4. CC(C)CNc1ncnc2c1cnn2Cc1ccc(Cl)cc1 inactive
5. Cc1nc2ccccc2cc1OCc1ccc(F)cc1 45.3 (active)

Kindly consider the entry below.
Asked: Which fluorescence ratio F(max-min)/F0 is listed for CC(C)(C)n1c(=O)[nH]c2c(c1=O)CCC2 ?
Given back: inactive
